- System: Clostridium sporogenes DSM 1664
- method-description: fold change of Tryptamine concentration vs plate DMSO controls (fold change (ratio)); higher = more amine produced, active = hit call of the paper (significant change in both replicates, either direction)
- condition-description: incubation time: 27 h, anaerobic, 37 °C
Counter-ions that a name gives are not always drawn.
condition met means recorded fold change of Tryptamine concentration is 1 or above; condition not met means it is below 1.

compound: Cn1nnnc1SCC1=C(C(=O)O)N2C(=O)[C@@H](NC(=O)[C@H](O)c3ccccc3)[C@H]2SC1 [Cefamandole sodium salt] (20 µM)
group: condition not met
--
compound: Nc1nc(=O)[nH]cc1F [Flucytosine] (20 µM)
group: condition not met
--
compound: COc1ccccc1O [Guaiacol] (20 µM)
group: condition met
